system: NCI-H2066 (Squamous Cell Lung Carcinoma); test: combination Emax (second highest fraction inhibited in the dose matrix, 72 h); higher = more inhibition; extreme values may be limits of the assay
METRIC NAME: combination Emax

# COMPOUND, METRIC NAME, TEST RESULT
records = [
    ("CN(CCO)CC[C@H](CSc1ccccc1)Nc1ccc(S(=O)(=O)NC(=O)c2ccc(N3CCC([C@@H](O)c4ccccc4-c4ccc(Cl)cc4)CC3)cc2)cc1S(=O)(=O)C(F)(F)F [AZD4320] + CCN(CCO)CCCOc1ccc2c(Nc3cc(CC(=O)Nc4cccc(F)c4)[nH]n3)ncnc2c1 [AZD2811] (first compound max 1 µM, 7x7, partner max 1 µM)", "combination Emax", 0.543),
    ("COc1cccc(OCCCN)c1-c1cc(Nc2cnc(C#N)cn2)n[nH]1 [Prexasertib] + CCc1c2c(nc3ccc(O)cc13)-c1cc3c(c(=O)n1C2)COC(=O)[C@]3(O)CC [SN-38] (first compound max 1 µM, 7x7, partner max 0.3 µM)", "combination Emax", 0.5),
]
